System: AncSZ;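 further: 11-residue human phosphosite peptides and single-mutation variants displayed on the E. coli surface, counted by deep sequencing, each peptide's frequency after selection divided by its frequency in the unselected input library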;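 further: frequency after pTyr selection over input frequency; kinase dosed for 20-30% of maximal phosphorylation in three min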
Procedure details: phosphorylation enrichment, bacterial display (enrichment ratio); higher = better substrate or ligand; peptides without Tyr show the background
Recorded measurements of phosphorylation enrichment, one per entry
The reply should be a number, written without any unit.

{"Item sequence": "SSREGYVRHHN [FAM83B_Y433_S435R]", "phosphorylation enrichment": 0.482}
{"Item sequence": "GAVDTYCRHNY [HLA-DRB1_Y107_A102G]", "phosphorylation enrichment": 0.724}
{"Item sequence": "ADEDIYGVLPA [LYNtide_2014]", "phosphorylation enrichment": 1.49}
{"Item sequence": "EIIPFYGMSTY [FNDC3B_Y175]", "phosphorylation enrichment": 0.751}
{"Item sequence": "HAVYVCDICHV [TWNK_Y508_Y508C]", "phosphorylation enrichment": 1.1}

Query block: Any idea what phosphorylation enrichment was measured for ILNANYMAKRL [GLDC_Y839] ?
Result block: 0.476

Query block: Next up: RFQKLYLDRNL [IGFALS_Y248_L244F]
Result block: 0.726

Query block: Next up: IMVFVYSRVFQ [ADRB2_Y219]
Result block: 0.961

Query block: Next up: CTTIRYNYMCN [TP53_Y234_H233R]
Result block: 0.787

Query block: Next up: TTKAKYKTPIF [PLD2_Y573_T577I_YF]
Result block: 0.588

Query block: Next up: MKDLTYASLCF [ALOX5_Y446]
Result block: 1.09

Query block: Next up: SVTWTYSPALN [TP53_Y126_C124W]
Result block: 1.31

Query block: Next up: GRDQPYSGTGD [TYRO3_Y828_A831T]
Result block: 0.667

Query block: Next up: DCPASYKKKSM [PDGFRA_Y768_R764C]
Result block: 0.394
